Binarize log10 vapour pressure (mmHg) at -1; below is 1 (yes), at or above is 0 (no).

Known results for compounds:
[[record]]
given_smiles = "O=C(Cl)C(Cl)(Cl)Cl"
assigned_label = "0 (no)"

[[record]]
given_smiles = "CCCCOCCOCCCC"
assigned_label = "1 (yes)"

[[record]]
given_smiles = "CCCCCCCCCCCCCCI"
assigned_label = "1 (yes)"

[[record]]
given_smiles = "CNC(=O)Oc1cc(C)c(C)c(C)c1"
assigned_label = "1 (yes)"


Field: below-cutoff. Rule: recorded log10 vapour pressure (mmHg) strictly less than -1. Subject: ClC1=C(Cl)C(Cl)(C2(Cl)C(Cl)=C(Cl)C(Cl)=C2Cl)C(Cl)=C1Cl
1 (yes)

Field: below-cutoff. Rule: recorded log10 vapour pressure (mmHg) strictly less than -1. Subject: CC(C)CCSCCC(C)C
0 (no)

Field: below-cutoff. Rule: recorded log10 vapour pressure (mmHg) strictly less than -1. Subject: C#CCN1CC(=O)N(COC(=O)[C@@H]2[C@@H](C=C(C)C)C2(C)C)C1=O
1 (yes)

Field: below-cutoff. Rule: recorded log10 vapour pressure (mmHg) strictly less than -1. Subject: CCCCCNCCCCC
0 (no)

Field: below-cutoff. Rule: recorded log10 vapour pressure (mmHg) strictly less than -1. Subject: CCOC(=O)C(C)(C)Br
0 (no)

Field: below-cutoff. Rule: recorded log10 vapour pressure (mmHg) strictly less than -1. Subject: ClCCl
0 (no)

Field: below-cutoff. Rule: recorded log10 vapour pressure (mmHg) strictly less than -1. Subject: CCOP(=S)(OCC)SCSC(C)(C)C
1 (yes)
